Target: T1, human integrin αvβ5 (human, UniProt P06756 31-992; P18084 24-719, limits assumed)
T1 construct: Heterodimer flowed as analyte at 30, 100, 300 and 1,000 nM in HEPES buffer with 5 mM MgCl2
T1 sequence (P06756 31-992 limits assumed, chain 1 of 2): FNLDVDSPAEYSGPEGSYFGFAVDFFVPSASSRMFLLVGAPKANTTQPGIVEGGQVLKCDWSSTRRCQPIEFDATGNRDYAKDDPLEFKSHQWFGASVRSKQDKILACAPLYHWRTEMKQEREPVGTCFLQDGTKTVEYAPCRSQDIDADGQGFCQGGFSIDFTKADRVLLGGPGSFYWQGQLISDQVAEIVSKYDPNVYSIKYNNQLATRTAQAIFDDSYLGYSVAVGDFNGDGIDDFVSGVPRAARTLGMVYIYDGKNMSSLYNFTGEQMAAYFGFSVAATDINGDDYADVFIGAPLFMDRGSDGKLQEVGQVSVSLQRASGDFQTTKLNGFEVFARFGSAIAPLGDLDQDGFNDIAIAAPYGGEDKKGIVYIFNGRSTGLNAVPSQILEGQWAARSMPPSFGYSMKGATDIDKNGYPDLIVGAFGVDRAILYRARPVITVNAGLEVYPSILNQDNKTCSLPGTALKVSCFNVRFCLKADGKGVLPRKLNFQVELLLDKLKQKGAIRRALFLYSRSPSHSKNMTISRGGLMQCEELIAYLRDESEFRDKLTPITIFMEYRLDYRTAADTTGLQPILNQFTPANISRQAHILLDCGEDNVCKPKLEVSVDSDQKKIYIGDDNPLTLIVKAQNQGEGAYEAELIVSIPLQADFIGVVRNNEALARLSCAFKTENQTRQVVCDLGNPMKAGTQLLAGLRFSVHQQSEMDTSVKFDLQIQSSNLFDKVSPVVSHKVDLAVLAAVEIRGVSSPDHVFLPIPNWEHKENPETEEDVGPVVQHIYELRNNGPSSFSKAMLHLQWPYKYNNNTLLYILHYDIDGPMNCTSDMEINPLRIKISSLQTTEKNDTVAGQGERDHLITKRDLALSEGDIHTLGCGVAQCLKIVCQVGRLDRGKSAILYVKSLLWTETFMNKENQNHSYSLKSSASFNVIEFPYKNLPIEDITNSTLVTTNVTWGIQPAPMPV
T1 sequence (P18084 24-719 limits assumed, chain 2 of 2): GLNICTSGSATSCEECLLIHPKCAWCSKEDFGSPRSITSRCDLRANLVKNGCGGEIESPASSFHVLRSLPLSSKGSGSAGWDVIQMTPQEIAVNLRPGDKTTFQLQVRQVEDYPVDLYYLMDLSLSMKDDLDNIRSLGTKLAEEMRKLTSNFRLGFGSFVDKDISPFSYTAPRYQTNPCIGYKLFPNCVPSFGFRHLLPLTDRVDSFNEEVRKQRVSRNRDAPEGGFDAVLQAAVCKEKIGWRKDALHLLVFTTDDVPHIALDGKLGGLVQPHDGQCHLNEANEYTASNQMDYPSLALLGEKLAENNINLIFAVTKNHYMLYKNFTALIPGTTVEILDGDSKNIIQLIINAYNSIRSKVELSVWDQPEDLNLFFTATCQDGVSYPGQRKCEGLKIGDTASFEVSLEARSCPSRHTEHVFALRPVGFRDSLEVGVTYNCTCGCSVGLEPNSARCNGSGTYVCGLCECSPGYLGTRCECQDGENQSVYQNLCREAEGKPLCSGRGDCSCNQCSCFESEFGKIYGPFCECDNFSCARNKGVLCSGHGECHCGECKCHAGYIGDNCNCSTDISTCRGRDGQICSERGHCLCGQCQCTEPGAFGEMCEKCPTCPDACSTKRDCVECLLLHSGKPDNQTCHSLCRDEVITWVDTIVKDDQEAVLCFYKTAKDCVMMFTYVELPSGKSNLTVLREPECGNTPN
Experiment: SPR, Biacore 3000, peptide immobilised; A = KD 50 nM or less
Starred links: 1 amine or outer side, 2 acyl side, 3 side chain; linkers in the order of their positions; H or OH if unused. Positions of bridges follow the written chain, without caps; N, C: chain ends. Non-standard residues stand in square brackets, D forms with d. Primed or numbered codes have the meaning given here. No end group written: not given here. Dab(acetyl)″ = 2-amino-4-(acetylamino)butanoic acid, acetyl CH3 carbon bonded to the S of Hcy (S-CH2-C(=O)-NH-), O=C(C[*:3])NCC[C@H](N[*:1])C(=O)[*:2]; Dab(acetyl) = 2-amino-4-acetylamino-butanoic acid residue (N-γ-acetyl-diaminobutyric acid), CC(=O)NCC[C@H](N[*:1])C(=O)[*:2]; hCys = N[C@@H](CCS)C(=O)O
MEASURED ENDPOINT: dissociation constant

Worked examples, 2 binders total:
[hCys]VPRGDTFA[Dab(acetyl)″]KKK (thioether 1-10) [Cyclic peptide 103] | ≤ 50 nM
KKKG[hCys]IPRGDSFA[Dab(acetyl)]A (thioether 5-14) [Cyclic peptide 94] | ≤ 50 nM

Request: Please give the measured dissociation constant for this binder: KKK[hCys]IPRGDSFA[Dab(acetyl)″] (thioether 4-13) [Cyclic peptide 101]
Response: ≤ 50 nM

Request: Please give the measured dissociation constant for this binder: KKK[hCys]VPRGDTF[Dab(acetyl)″] (thioether 4-12) [Cyclic peptide 64]
Response: ≤ 50 nM

Request: Please give the measured dissociation constant for this binder: KKKA[hCys]VPRGDSFA[Dab(acetyl)]A (thioether 5-14) [Cyclic peptide 96]
Response: ≤ 50 nM

Request: Please give the measured dissociation constant for this binder: KKKA[hCys]IPRGDSFA[Dab(acetyl)]G (thioether 5-14) [Cyclic peptide 93]
Response: ≤ 50 nM
